Molecular target: SARS-CoV-2 hexaproline stabilized pre-fusion spike glycoprotein (S6P) (SARS-CoV-2, ancestral (Wuhan-Hu-1 …, UniProt P0DTC2, stabilised))

Binder	binding result
COVA2-41 (antibody, V domains shown) VH: EVQLVESGGGLVKPGGSLRLSCSASGFTFSNYNMDWVRQAPGKGLEWVSSISSSSSYIYLADSVKGRFTISRDNAKNSLYLQMNSLRAEDTAVYYCARVQKDIVVVPVALADYYYYGMDVWGQGTTVTVSS VL: DIVMTQSPATLSVSPGERATLSCRASQSVSSNLAWYQQKPGQAPRLLIYGASTRATGIPARFSGSGSGTEFTLTISSLQPEDFAVYYCQQCYNWPPWTFGQGTRVEFK	binds
BD-604 (antibody, V domains shown) VH: EVQLVESGGGLIQPGGSLRLSCAASGIIVSSNYMTWVRQAPGKGLEWVSVIYSGGSTFYADSVKGRFTISRDNSKNTLYLQMSSLRAEDTAVYYCARDLGPYGMDVWGQGTTVTVSS VL: DIQLTQSPSFLSASVGDRVTITCRASQGISSDLAWYQQKPGKAPNLLIYAASTLQSGVPSRFSGSGSGTEFTLTISSLQPEDFATYYCQQLNSDLYTFGQGTKLEIK	binds
COVA1-18 (antibody, V domains shown) VH: EVQLVESGGGLVQPGGSLRLSCAASGFTVSSNYMSWVRQAPGKGLEWVSVIYSGGSTYYADSVKGRFTISRDNSKNTLYLQMNSLRAEDTAVYYCARVEWAAAGTFYWGQGTLVTVSS VL: QSALTQEPSLTVSPGGTVTLTCGSSTGAVTSGHYPYWFQQKPGQAPRTLIYDTSNKRSWTPARFSGSLLGGKAALTLSGAQPEDEAEYYCLLSYSGVWVFGGGTKLTVL	binds
